# Tested on: Escherichia coli TOP10
# test: shrunken log2 fold change of peptide-encoding DNA abundance (4.5 h post-induction vs induction); higher = less antimicrobial activity (less host growth inhibition)
# condition parameters: time post-induction: 4.5 h; library: site-saturation at positions 5, 18, 19, 20
property label: shrunken log2 fold change

Recorded result, RRIRDRPPRLPRPRPRPNTYPRP , shrunken log2 fold change: -0.127

Recorded result, RRIRARPPRLPRPRPRPQSNPRP , shrunken log2 fold change: -0.142

Recorded result, RRIRFRPPRLPRPRPRPHAIPRP , shrunken log2 fold change: 0.00598

Recorded result, RRIRLRPPRLPRPRPRPEAGPRP , shrunken log2 fold change: 0.375

Recorded result, RRIRIRPPRLPRPRPRPKTPPRP , shrunken log2 fold change: -0.0573

Recorded result, RRIRMRPPRLPRPRPRPDEAPRP , shrunken log2 fold change: 2.2

Recorded result, RRIRKRPPRLPRPRPRPVVPPRP , shrunken log2 fold change: -0.093

Recorded result, RRIRSRPPRLPRPRPRPRLIPRP , shrunken log2 fold change: 0.288

---

# Tested on: Escherichia coli TOP10
# test: shrunken log2 fold change of peptide-encoding DNA abundance (4.5 h post-induction vs induction); higher = less antimicrobial activity (less host growth inhibition)
# condition parameters: time post-induction: 4.5 h; library: site-saturation at positions 5, 18, 19, 20
Please go through the items and note down their shrunken log2 fold change.
Write no unit; give the number alone.

Recorded result, RRIRERPPRLPRPRPRPEVSPRP , shrunken log2 fold change: 0.0769

Recorded result, RRIRYRPPRLPRPRPRPVSWPRP , shrunken log2 fold change: 0.106

Recorded result, RRIRDRPPRLPRPRPRPIIYPRP , shrunken log2 fold change: -0.313

Recorded result, RRIRQRPPRLPRPRPRPTVMPRP , shrunken log2 fold change: 0.0964

Recorded result, RRIRNRPPRLPRPRPRPSEDPRP , shrunken log2 fold change: -0.145

Recorded result, RRIRMRPPRLPRPRPRPLCKPRP , shrunken log2 fold change: 0.206

Recorded result, RRIRNRPPRLPRPRPRPKPWPRP , shrunken log2 fold change: 0.217

Recorded result, RRIRIRPPRLPRPRPRPLPVPRP , shrunken log2 fold change: 0.094

Recorded result, RRIRWRPPRLPRPRPRPAYGPRP , shrunken log2 fold change: -0.213

Recorded result, RRIRGRPPRLPRPRPRPCNQPRP , shrunken log2 fold change: -0.174

Recorded result, RRIRSRPPRLPRPRPRPYEPPRP , shrunken log2 fold change: -0.619

Recorded result, RRIRPRPPRLPRPRPRPIEIPRP , shrunken log2 fold change: -0.0794

Recorded result, RRIRQRPPRLPRPRPRPRCYPRP , shrunken log2 fold change: 0.0331

Recorded result, RRIRKRPPRLPRPRPRPFFQPRP , shrunken log2 fold change: 0.346

Recorded result, RRIRHRPPRLPRPRPRPKHTPRP , shrunken log2 fold change: -0.104

---

Please go through the items and note down their shrunken log2 fold change.
# System: Escherichia coli TOP10
# test: shrunken log2 fold change of peptide-encoding DNA abundance (4.5 h post-induction vs induction); higher = less antimicrobial activity (less host growth inhibition)
# condition parameters: time post-induction: 4.5 h; library: site-saturation at positions 5, 18, 19, 20

The sequence RRIRSRPPRLPRPRPRPGRGPRP on Escherichia coli TOP10: shrunken log2 fold change was 0.715

The sequence RRIRLRPPRLPRPRPRPPSFPRP on Escherichia coli TOP10: shrunken log2 fold change was -0.244

The sequence RRIRLRPPRLPRPRPRPYWDPRP on Escherichia coli TOP10: shrunken log2 fold change was -0.195

The sequence RRIRPRPPRLPRPRPRPPSRPRP on Escherichia coli TOP10: shrunken log2 fold change was 0.353

The sequence RRIRHRPPRLPRPRPRPRMWPRP on Escherichia coli TOP10: shrunken log2 fold change was -0.237

The sequence RRIRDRPPRLPRPRPRPVSCPRP on Escherichia coli TOP10: shrunken log2 fold change was 0.342

The sequence RRIRIRPPRLPRPRPRPVWQPRP on Escherichia coli TOP10: shrunken log2 fold change was 0.536

The sequence RRIRDRPPRLPRPRPRPNAKPRP on Escherichia coli TOP10: shrunken log2 fold change was 0.128

The sequence RRIRLRPPRLPRPRPRPPKGPRP on Escherichia coli TOP10: shrunken log2 fold change was 0.306

The sequence RRIRQRPPRLPRPRPRPYWYPRP on Escherichia coli TOP10: shrunken log2 fold change was -0.0759

The sequence RRIRQRPPRLPRPRPRPINGPRP on Escherichia coli TOP10: shrunken log2 fold change was -0.000925

The sequence RRIRCRPPRLPRPRPRPLSDPRP on Escherichia coli TOP10: shrunken log2 fold change was 0.0896

The sequence RRIRSRPPRLPRPRPRPFQSPRP on Escherichia coli TOP10: shrunken log2 fold change was -0.167

The sequence RRIRVRPPRLPRPRPRPVDVPRP on Escherichia coli TOP10: shrunken log2 fold change was -0.106

The sequence RRIRYRPPRLPRPRPRPNQYPRP on Escherichia coli TOP10: shrunken log2 fold change was -1.18

---

# Tested on: Escherichia coli TOP10
# test: shrunken log2 fold change of peptide-encoding DNA abundance (4.5 h post-induction vs induction); higher = less antimicrobial activity (less host growth inhibition)
# condition parameters: time post-induction: 4.5 h; library: site-saturation at positions 5, 18, 19, 20
# cutoff 0.1 applies to shrunken log2 fold change; >= gives Condition met, < gives Condition not met

Q: Could you verify whether the entry RRIRMRPPRLPRPRPRPGDMPRP shows shrunken log2 fold change of no less than 0.1?
Ans: Condition met

Q: Could you verify whether the entry RRIRCRPPRLPRPRPRPPQCPRP shows shrunken log2 fold change of no less than 0.1?
Ans: Condition met

Q: Could you verify whether the entry RRIRFRPPRLPRPRPRPCPMPRP shows shrunken log2 fold change of no less than 0.1?
Ans: Condition not met

Q: Could you verify whether the entry RRIRNRPPRLPRPRPRPNCKPRP shows shrunken log2 fold change of no less than 0.1?
Ans: Condition not met

Q: Could you verify whether the entry RRIRNRPPRLPRPRPRPAKWPRP shows shrunken log2 fold change of no less than 0.1?
Ans: Condition met

Q: Could you verify whether the entry RRIRYRPPRLPRPRPRPLMGPRP shows shrunken log2 fold change of no less than 0.1?
Ans: Condition not met

Q: Could you verify whether the entry RRIRWRPPRLPRPRPRPQAHPRP shows shrunken log2 fold change of no less than 0.1?
Ans: Condition not met

---

Please go through the items and note down their shrunken log2 fold change.
# Tested on: Escherichia coli TOP10
# test: shrunken log2 fold change of peptide-encoding DNA abundance (4.5 h post-induction vs induction); higher = less antimicrobial activity (less host growth inhibition)
# condition parameters: time post-induction: 4.5 h; library: site-saturation at positions 5, 18, 19, 20
Write no unit; give the number alone.

Recorded result, RRIRNRPPRLPRPRPRPHHPPRP , shrunken log2 fold change: -0.398

Recorded result, RRIRSRPPRLPRPRPRPSQFPRP , shrunken log2 fold change: -0.345

Recorded result, RRIRNRPPRLPRPRPRPELEPRP , shrunken log2 fold change: 0.47

Recorded result, RRIRSRPPRLPRPRPRPLHSPRP , shrunken log2 fold change: -0.0322

Recorded result, RRIRERPPRLPRPRPRPFQHPRP , shrunken log2 fold change: -0.252

Recorded result, RRIRHRPPRLPRPRPRPVLEPRP , shrunken log2 fold change: 0.338

Recorded result, RRIRARPPRLPRPRPRPPRHPRP , shrunken log2 fold change: 0.937

Recorded result, RRIRLRPPRLPRPRPRPPEWPRP , shrunken log2 fold change: 0.682

Recorded result, RRIRKRPPRLPRPRPRPYHAPRP , shrunken log2 fold change: 0.0039

Recorded result, RRIRVRPPRLPRPRPRPGNCPRP , shrunken log2 fold change: 0.0986

Recorded result, RRIRTRPPRLPRPRPRPSCVPRP , shrunken log2 fold change: -0.185

Recorded result, RRIRSRPPRLPRPRPRPYTIPRP , shrunken log2 fold change: -0.808

Recorded result, RRIRQRPPRLPRPRPRPNMTPRP , shrunken log2 fold change: -0.196

Recorded result, RRIRVRPPRLPRPRPRPKFWPRP , shrunken log2 fold change: 0.48

Recorded result, RRIRYRPPRLPRPRPRPGKNPRP , shrunken log2 fold change: -0.13

---

# Tested on: Escherichia coli TOP10;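 further: peptides expressed intracellularly from a pBAD plasmid library in pooled LB shake-flask culture, induced with 0.3% L-arabinose, DNA abundance read by NGS, three biological replicates, DESeq2 with apeglm shrinkage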
# test: shrunken log2 fold change of peptide-encoding DNA abundance (4.5 h post-induction vs induction); higher = less antimicrobial activity (less host growth inhibition)
# condition parameters: time post-induction: 4.5 h; library: site-saturation at positions 5, 18, 19, 20
# thresholds on shrunken log2 fold change define classes: low range (below -0.04), mid range (-0.04 to below 0.07), high range (0.07 or more)

Q: Which of the defined bands does the recorded shrunken log2 fold change of RRIRCRPPRLPRPRPRPPFDPRP sit within?
Ans: high range

Q: Which of the defined bands does the recorded shrunken log2 fold change of RRIRTRPPRLPRPRPRPFKKPRP sit within?
Ans: low range

Q: Which of the defined bands does the recorded shrunken log2 fold change of RRIRMRPPRLPRPRPRPDAHPRP sit within?
Ans: high range

Q: Which of the defined bands does the recorded shrunken log2 fold change of RRIRIRPPRLPRPRPRPRKFPRP sit within?
Ans: mid range

Q: Which of the defined bands does the recorded shrunken log2 fold change of RRIRFRPPRLPRPRPRPDDEPRP sit within?
Ans: mid range

Q: Which of the defined bands does the recorded shrunken log2 fold change of RRIRYRPPRLPRPRPRPCFPPRP sit within?
Ans: low range

Q: Which of the defined bands does the recorded shrunken log2 fold change of RRIRCRPPRLPRPRPRPQEHPRP sit within?
Ans: low range

Q: Which of the defined bands does the recorded shrunken log2 fold change of RRIRDRPPRLPRPRPRPVRLPRP sit within?
Ans: high range

Q: Which of the defined bands does the recorded shrunken log2 fold change of RRIRVRPPRLPRPRPRPDEFPRP sit within?
Ans: low range

Q: Which of the defined bands does the recorded shrunken log2 fold change of RRIRKRPPRLPRPRPRPFQTPRP sit within?
Ans: high range

Q: Which of the defined bands does the recorded shrunken log2 fold change of RRIRQRPPRLPRPRPRPIIWPRP sit within?
Ans: mid range

Q: Which of the defined bands does the recorded shrunken log2 fold change of RRIRYRPPRLPRPRPRPDHKPRP sit within?
Ans: low range

Q: Which of the defined bands does the recorded shrunken log2 fold change of RRIRRRPPRLPRPRPRPMHHPRP sit within?
Ans: high range

Q: Which of the defined bands does the recorded shrunken log2 fold change of RRIRRRPPRLPRPRPRPCPFPRP sit within?
Ans: mid range
